target: Neurogenic locus notch homolog protein 1 (Homo sapiens, UniProt P46531); assay: Inhibition of Notch1 deltaE mutant (unknown origin) expressed in HEK293 cells after 16 hrs by […] luciferase reporter gene assay
Sequence (P46531 19-2555 limits assumed): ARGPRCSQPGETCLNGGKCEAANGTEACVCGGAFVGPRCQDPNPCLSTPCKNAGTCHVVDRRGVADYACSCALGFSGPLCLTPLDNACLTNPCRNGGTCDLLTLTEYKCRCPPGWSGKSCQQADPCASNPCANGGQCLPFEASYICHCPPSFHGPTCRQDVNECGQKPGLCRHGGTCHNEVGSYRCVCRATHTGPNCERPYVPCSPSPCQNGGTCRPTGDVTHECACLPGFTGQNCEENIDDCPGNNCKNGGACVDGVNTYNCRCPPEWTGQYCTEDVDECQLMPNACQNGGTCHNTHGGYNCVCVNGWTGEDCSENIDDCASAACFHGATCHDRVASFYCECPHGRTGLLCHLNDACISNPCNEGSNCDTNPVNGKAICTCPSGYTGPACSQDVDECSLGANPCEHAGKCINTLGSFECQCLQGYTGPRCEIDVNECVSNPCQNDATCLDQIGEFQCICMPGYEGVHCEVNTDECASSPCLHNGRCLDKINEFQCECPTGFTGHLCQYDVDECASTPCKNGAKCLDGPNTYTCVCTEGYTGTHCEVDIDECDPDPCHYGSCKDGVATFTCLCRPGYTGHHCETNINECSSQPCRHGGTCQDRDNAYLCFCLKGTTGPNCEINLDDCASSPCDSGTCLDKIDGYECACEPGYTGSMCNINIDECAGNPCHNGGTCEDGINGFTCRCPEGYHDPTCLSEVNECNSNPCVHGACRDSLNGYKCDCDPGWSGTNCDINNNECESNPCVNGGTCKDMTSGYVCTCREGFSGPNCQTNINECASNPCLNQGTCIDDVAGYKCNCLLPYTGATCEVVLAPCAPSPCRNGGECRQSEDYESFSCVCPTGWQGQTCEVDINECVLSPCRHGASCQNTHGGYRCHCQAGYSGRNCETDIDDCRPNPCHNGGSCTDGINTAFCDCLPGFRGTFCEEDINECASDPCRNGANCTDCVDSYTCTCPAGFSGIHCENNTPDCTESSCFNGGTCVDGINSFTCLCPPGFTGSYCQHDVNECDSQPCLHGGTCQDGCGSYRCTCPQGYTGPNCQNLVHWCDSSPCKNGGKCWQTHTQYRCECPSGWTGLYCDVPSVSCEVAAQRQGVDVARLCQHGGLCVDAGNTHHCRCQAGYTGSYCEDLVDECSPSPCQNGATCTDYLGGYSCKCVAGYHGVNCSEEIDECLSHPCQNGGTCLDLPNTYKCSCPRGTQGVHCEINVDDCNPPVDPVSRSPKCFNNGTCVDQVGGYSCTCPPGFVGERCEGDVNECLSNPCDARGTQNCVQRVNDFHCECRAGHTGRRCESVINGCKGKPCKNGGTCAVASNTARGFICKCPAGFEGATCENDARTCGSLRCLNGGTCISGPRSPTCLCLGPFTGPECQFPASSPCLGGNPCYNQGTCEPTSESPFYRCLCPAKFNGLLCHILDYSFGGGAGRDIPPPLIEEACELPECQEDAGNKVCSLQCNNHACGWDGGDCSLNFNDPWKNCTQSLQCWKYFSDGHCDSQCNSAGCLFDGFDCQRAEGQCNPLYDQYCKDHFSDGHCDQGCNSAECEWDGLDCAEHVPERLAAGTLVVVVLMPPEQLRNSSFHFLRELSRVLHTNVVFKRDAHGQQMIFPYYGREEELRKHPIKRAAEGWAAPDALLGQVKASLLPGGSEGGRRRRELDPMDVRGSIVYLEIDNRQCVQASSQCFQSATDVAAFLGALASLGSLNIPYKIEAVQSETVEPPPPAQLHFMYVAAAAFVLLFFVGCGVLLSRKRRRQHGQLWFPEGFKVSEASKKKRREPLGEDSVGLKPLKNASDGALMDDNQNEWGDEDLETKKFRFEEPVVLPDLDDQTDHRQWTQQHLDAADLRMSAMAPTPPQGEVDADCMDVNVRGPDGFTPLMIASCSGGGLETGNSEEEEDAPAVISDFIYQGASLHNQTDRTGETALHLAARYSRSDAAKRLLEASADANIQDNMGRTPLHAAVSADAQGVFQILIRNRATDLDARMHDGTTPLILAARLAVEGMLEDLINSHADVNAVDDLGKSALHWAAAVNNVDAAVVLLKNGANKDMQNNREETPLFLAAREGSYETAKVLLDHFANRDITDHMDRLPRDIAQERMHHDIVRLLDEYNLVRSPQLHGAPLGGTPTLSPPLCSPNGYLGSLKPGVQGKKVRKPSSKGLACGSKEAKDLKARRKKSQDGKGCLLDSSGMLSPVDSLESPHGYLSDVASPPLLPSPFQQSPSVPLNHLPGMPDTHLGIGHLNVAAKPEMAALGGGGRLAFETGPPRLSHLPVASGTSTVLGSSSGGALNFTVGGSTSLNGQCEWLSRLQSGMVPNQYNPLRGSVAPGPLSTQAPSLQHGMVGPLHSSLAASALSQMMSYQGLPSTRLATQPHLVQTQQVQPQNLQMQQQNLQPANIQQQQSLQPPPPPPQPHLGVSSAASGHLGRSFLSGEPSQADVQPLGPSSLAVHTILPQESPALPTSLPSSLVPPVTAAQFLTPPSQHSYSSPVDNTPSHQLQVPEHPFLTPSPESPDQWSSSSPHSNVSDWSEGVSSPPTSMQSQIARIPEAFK
observed_property: IC50 (µM)

Example entries and their recorded answers appear below.
CC1=C(C(=O)OCC2CCN(C(=O)OC(C)(C)C)CC2)[C@H](c2cccc(Br)c2)C2=C(CC(C)(C)CC2=O)N1; 0.13
CC1=C(C(=O)OC2CCCCC2)C(c2cccc(C(F)(F)F)c2)C2=C(CC(C)(C)CC2=O)N1 (stereo not drawn); 14.7
CC1=C(C(=O)OCC2CCN(C(=O)OC(C)(C)C)CC2)C(c2cccc(Br)c2)C2=C(CC(C)(C)CC2=O)N1 (stereo not drawn); 0.36

(P) CC1=C(C(=O)OCC2CCN(C(=O)OC(C)(C)C)CC2)C(c2ccc3ccccc3n2)C2=C(CC(C)(C)CC2=O)N1 (stereo not drawn)
(Q) CC1=C(C(=O)OCc2ccc(C(C)(C)C)cc2)C(c2cccc(Br)c2)C2=C(CC(C)(C)CC2=O)N1 (stereo not drawn)
Query: Which has the higher IC50, P or Q ? Refer to your chosen item by its label in the answer.
Result: Q
(Q: 4.27 µM, P: 0.33 µM)

====

biological target: Neurogenic locus notch homolog protein 1 (Homo sapiens); assay: Inhibition of Notch1 deltaE mutant (unknown origin) expressed in HEK293 cells after 16 hrs by […] luciferase reporter gene assay
pIC50: −log10 of the molar value.
observed_property: pIC50

Example entries and their recorded answers appear below.
CC1=C(C(=O)OCC2CCN(C(=O)OC(C)(C)C)CC2)C(c2ccc3c(c2)OCCO3)C2=C(CC(C)(C)CC2=O)N1 (stereo unspecified); 5.82
CC1=C(C(=O)OCC2CCN(C(=O)OC(C)(C)C)CC2)[C@@H](c2cccc(Br)c2)C2=C(CC(C)(C)CC2=O)N1; 5.59
CC1=C(C(=O)OC2CCCCC2)C(c2cccc(C#N)c2)C2=C(CC(C)(C)CC2=O)N1 (stereo unspecified); 4.36
CC1=C(C(=O)OC2CCCCC2)C(c2ccc([N+](=O)[O-])cc2)C2=C(CC(C)(C)CC2=O)N1 (stereo unspecified); 5.60
CC1=C(C(=O)OCC2CCN(C(=O)OC(C)(C)C)CC2)C(c2cccc(-c3ccc4[nH]ccc4c3)c2)C2=C(CC(C)(C)CC2=O)N1 (stereo unspecified); 6.11

(I) CC1=C(C(=O)OC2CCCCC2)C(c2cccc(Br)c2)C2=C(CC(C)(C)CC2=O)N1 (stereo unspecified)
(II) CC1=C(C(=O)OC2CCCCC2)C(c2ccc3c(c2)OCCO3)C2=C(CC(C)(C)CC2=O)N1 (stereo unspecified)
(III) CC1=C(C(=O)OCC2CCN(C(=O)OC(C)(C)C)CC2)C(c2cc(Cl)cc(Cl)c2)C2=C(CC(C)(C)CC2=O)N1 (stereo unspecified)
Query: Put these in order: smallest pIC50 first, largest last. Hello, could you send the labels back in the order asked? Thank you.
Result: II, I, III

(I) CC1=C(C(=O)OCC2CCN(C(=O)OC(C)(C)C)CC2)C(c2cccc(C#N)c2)C2=C(CC(C)(C)CC2=O)N1 (stereo unspecified)
(II) CC1=C(C(=O)OCc2cnccn2)C(c2cccc(Br)c2)C2=C(CC(C)(C)CC2=O)N1 (stereo unspecified)
Query: Select one. Lower pIC50: I or II Refer to your chosen item by its label in the answer.
Result: II
(II: 6.07, I: 6.66)

(P) CC1=C(C(=O)OCC2CCN(C(=O)OC(C)(C)C)CC2)C(c2cccc(C(F)(F)F)c2)C2=C(CC(C)(C)CC2=O)N1 (stereo unspecified)
(Q) CC1=C(C(=O)OCCC2CCN(C(=O)OC(C)(C)C)CC2)C(c2cccc(Br)c2)C2=C(CC(C)(C)CC2=O)N1 (stereo unspecified)
Query: Which has the higher pIC50, P or Q ? Refer to your chosen item by its label in the answer.
Result: P
